# Tested on: HL-60(TB) leukemia
# procedure details: NCI tumour cell line growth inhibition, 48 h; in the data active means GI50 below about 0.43 µM; inactive means the rest
Classes to choose from: active, inactive

Please review the following examples before continuing.
>>> print(df.to_string())
                                   molecule  class_label
0       ClCc1cccc(Cn2cnc3c(Cl)nc(Cl)nc32)c1     inactive
1  CC(=O)/C=C/c1ccc(Nc2c3ccccc3nc3occ(Cl)c23)cc1     inactive
2                N=c1ccc2nc3ccc(N)cc3sc-2c1     inactive
3  CCn1cc(/C=C2\Oc3cc(OCC#N)ccc3C2=O)c2cc(OC)ccc21       active
4  CCSc1ccc([C@@H]2[C@@H](O)C(=O)N2c2cc(OC)c(OC)c(OC)c2)cc1       active

From here, focus on the item given below.
Tell me the recorded outcome of this test for COc1ccc(C2=NC(=O)NC2c2ccc(OC)cc2)cc1 (stereo unspecified) .
inactive

----------
# Test system: SK-MEL-5 melanoma
# procedure details: NCI tumour cell line growth inhibition, 48 h
Catalogue of GI50 values

Known results for compounds:
In [3]: df
Out[3]:
                                   compound  measured_endpoint  observed_result
0    COc1ccc(-c2cnnn2-c2nonc2-n2cccc2)cc1OC               GI50          4600 nM
1  Cn1cc(-c2cc(-c3cn(C)c4ccc(Cl)cc34)[nH]n2)c2cc(Cl)ccc21               GI50          1790 nM
2  CN(C)CCCOc1cccc(NC2=C(Cl)C(=O)C(Nc3cccc(OCCCN(C)C)c3)=C(Cl)C2=O)c1               GI50          1000 nM
3  CC(C)(C)NCC(O)COc1c(Br)c(Br)c(Br)c2c1OC(C)(C)C2 (stereo not given)               GI50          1550 nM

# evaluate next
# query: GI50 of entry COc1ccc(-c2nc(-c3nc4cc(Cl)c(F)cc4[nH]3)c3ccccn23)cc1
2220 nM

----------
# Test system: MDA-MB-435
Classes to choose from: active, inactive

>>> df
                                   molecule  class_label
0  C=C1C(=O)O[C@H]2[C@H]1CC/C(COC(=O)NCc1ccc(Cn3c(=O)sn(CCCCC)c3=O)cc1)=C\CC[C@@]1(C)O[C@@H]21     inactive
1  C/C(=C(/c1ccccc1)c1ccc(OCC(O)CNCCN2CCOCC2)cc1)c1ccccc1 (stereo not drawn)     inactive

Tell me the recorded outcome of this test for COc1ccc(Nc2nc(Nc3cc(C)[nH]n3)c3cc(OC)c(OC)cc3n2)cc1 .
inactive

Tell me the recorded outcome of this test for Cn1c(=O)n(C)c2cc(CNCCNc3ccnc4cc(Cl)ccc34)ccc21 .
inactive

Tell me the recorded outcome of this test for COc1cc(F)ccc1-c1cc(Nc2cc(CS(C)(=N)=O)ccn2)ncc1F (stereo not drawn) .
active

Tell me the recorded outcome of this test for COc1ccc2c(c1)C(=O)/C(=C/c1cccc(OCC(=O)Nc3nc(C)c(C)s3)c1)O2 .
inactive

Tell me the recorded outcome of this test for CN(Cc1ccc(F)cc1)c1ccc(CO)c(Cl)c1 .
inactive

Tell me the recorded outcome of this test for O=C(Nc1cccc2[nH]c(C(F)(F)F)nc12)c1cc(Cl)ccc1Cl .
inactive

Tell me the recorded outcome of this test for Nc1c(C(=O)c2cccc(C#CCN3CCCCC3)c2)cnn1-c1ccc(F)cc1 .
inactive

Tell me the recorded outcome of this test for CC(NC(=O)Cc1ccc(C(F)(F)P(=O)(OCc2ccc([N+](=O)[O-])o2)N(C)CCCCCl)cc1)c1ccc(OCC2CCCCC2)c(C(N)=O)c1 (stereo not drawn) .
inactive

Tell me the recorded outcome of this test for N=c1ccc2nc3ccc(N)cc3sc-2c1 .
inactive

Tell me the recorded outcome of this test for CCOC(=O)c1sc(-c2ccc(OS(=O)(=O)C[C@]34CCC(CC3=O)C4(C)C)c(C=O)c2)nc1C .
inactive

Tell me the recorded outcome of this test for ClCc1cccc(Cn2cnc3c(Cl)nc(Cl)nc32)c1 .
inactive
